Origin of the recorded values: patent US20120253017A1

# Measurement target: T1, mouse ventricular myosin light chain 1, GlySer(His)6 tag (mouse, UniProt P09542 1-204)
# T1 construct: also called mouse vMLC-1
# T1 sequence (P09542 other isoform, or with tags, fused parts or gaps): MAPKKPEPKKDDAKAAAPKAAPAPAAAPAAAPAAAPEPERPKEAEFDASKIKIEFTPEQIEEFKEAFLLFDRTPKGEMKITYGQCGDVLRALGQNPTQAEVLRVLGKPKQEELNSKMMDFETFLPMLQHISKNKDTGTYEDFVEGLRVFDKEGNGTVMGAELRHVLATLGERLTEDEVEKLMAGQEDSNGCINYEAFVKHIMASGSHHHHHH
# Measurement description: BIAcore, vMLC-1 immobilised
Reported values of kon for individual entries
Readout name: kon (M⁻¹ s⁻¹)

[[record]]
binder = "humanised 39-15 mAb 4-1:1-3 (antibody, human IgG1, kappa, V domains shown, human IgG1 kappa) VH: QVQLVQSGAEVKKPGASVKVSCKASGYTFTTYWIHWVRQAPGQRLEWMGAIYPGDGDTRYTQNFKDRVTITRDTSASTAYMELSSLRSEDMAVYYCAREGTPPFTTATFAMAYWGQGTLVTVSS VL: DIVMTQSPDSLAVSLGERATINCKSSQSLLYSRTRKNYLAWYQQKPGQPPKLLIYWASTRQSGVPDRFSGSGSGTDFTLTISSLQAEDVAVYYCKQSYNLFTFGQGTKLEIKR"
reported_measurement = "1.67e+06"

[[record]]
binder = "humanised 39-15 mAb 4-1:1-8 (antibody, V domains shown) VH: QVQLVQSGAEVKKPGASVKVSCKASGYTFTTYWIHWVRQATGQGLEWMGAIYPGDGDTRYTQNFKDRVTMTRNTSISTAYMELSSLRSEDTAVYYCAREGTPPFTTATFAMAYWGQGTLVTVSS VL: DIVMTQSPDSLAVSLGERATINCKSSQSLLYSRTRKNYLAWYQQKPGQPPKLLIYWASTRQSGVPDRFSGSGSGTDFTLTISSLQAEDVAVYYCKQSYNLFTFGQGTKLEIKR"
reported_measurement = "1.32e+06"

[[record]]
binder = "humanised 39-15 mAb 4-1:1-46 (antibody, human IgG1, V domains shown, human IgG1 kappa) VH: QVQLVQSGAEVKKPGASVKVSCKASGYTFTTYWIHWVRQAPGQGLEWMGAIYPGDGDTRYTQNFKDRVTMTRDTSTSTVYMELSSLRSEDTAVYYCAREGTPPFTTATFAMAYWGQGTLVTVSS VL: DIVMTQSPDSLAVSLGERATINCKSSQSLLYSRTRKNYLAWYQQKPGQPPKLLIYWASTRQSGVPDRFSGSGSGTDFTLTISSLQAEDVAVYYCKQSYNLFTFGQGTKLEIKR"
reported_measurement = "1.79e+06"

[[record]]
binder = "humanised 39-15 mAb 4-1:5-51 (antibody, human IgG1, kappa, V domains shown, human IgG1 kappa) VH: EVQLVQSGAEVKKPGESLKISCKGSGYSFTTYWIHWVRQMPGKGLEWMGAIYPGDGDTRYTQNFKDQVTISADKSISTAYLQWSSLKASDTAMYYCAREGTPPFTTATFAMAYWGQGTLVTVSS VL: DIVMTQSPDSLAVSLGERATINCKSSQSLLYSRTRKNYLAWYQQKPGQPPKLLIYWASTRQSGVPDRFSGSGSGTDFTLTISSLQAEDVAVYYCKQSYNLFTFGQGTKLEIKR"
reported_measurement = "1.42e+06"

